target-system: purified, full length dDAT (Drosophila melanogaster)
Construct: Full length dDAT with a C-terminal thrombin cleavage site followed by a His8-tag; made in house; host or cells: Expi293F suspension cells transduced with BacMam baculovirus (virus produced in Sf9)
method: Competitive inhibition of [3H]nisoxetine binding to purified dDAT by scintillation proximity assay (SPA)
measurement-conditions: Ki, first (higher affinity) binding population of biphasic curve, [3H]nisoxetine displacement; T = 2 h at RT; two-site fit; representative dataset, estimated
readout-label: pKi
Please express pKi as -log10 of the molar concentration.

Item OC1(c2ccc(Cl)cc2)c2ccccc2C2=NCCN21 (stereo not shown) was tested on purified, full length dDAT (Drosophila melanogaster); the reported pKi is 9.70

* * *

target-system: dDAT expressed in COS-7 cells (Drosophila melanogaster)
Construct: Full length dDAT with a C-terminal thrombin cleavage site followed by a His8-tag
Sequence (Q7K4Y6 whole entry): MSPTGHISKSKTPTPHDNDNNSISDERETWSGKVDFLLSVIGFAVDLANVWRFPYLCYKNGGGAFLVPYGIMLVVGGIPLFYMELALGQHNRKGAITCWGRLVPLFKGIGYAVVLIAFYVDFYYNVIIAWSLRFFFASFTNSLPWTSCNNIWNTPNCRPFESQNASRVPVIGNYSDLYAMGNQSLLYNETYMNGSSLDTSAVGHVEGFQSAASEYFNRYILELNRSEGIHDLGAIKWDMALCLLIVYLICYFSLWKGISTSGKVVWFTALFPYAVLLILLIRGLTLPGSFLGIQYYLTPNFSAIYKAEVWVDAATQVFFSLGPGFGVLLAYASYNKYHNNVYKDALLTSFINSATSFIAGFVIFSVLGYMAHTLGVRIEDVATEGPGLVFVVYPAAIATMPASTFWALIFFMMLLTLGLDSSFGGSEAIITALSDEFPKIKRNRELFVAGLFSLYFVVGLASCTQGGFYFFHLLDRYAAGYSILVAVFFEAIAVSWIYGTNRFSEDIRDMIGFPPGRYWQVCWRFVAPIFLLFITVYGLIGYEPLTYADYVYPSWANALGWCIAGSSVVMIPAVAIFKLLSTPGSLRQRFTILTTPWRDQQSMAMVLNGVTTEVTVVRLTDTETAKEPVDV
method: Competition binding of [3H]nisoxetine in COS-7 cells expressing dDAT
readout-label: Kd (nM)
Note: unit nM is implicit; provide only the numeric part.

So, CNCCC(Oc1ccccc1OC)c1ccccc1 (stereo not shown) ? Its Kd was 70

* * *

target-system: hNET expressed in COS-7 cells (Homo sapiens, UniProt P23975)
Sequence (P23975 whole entry): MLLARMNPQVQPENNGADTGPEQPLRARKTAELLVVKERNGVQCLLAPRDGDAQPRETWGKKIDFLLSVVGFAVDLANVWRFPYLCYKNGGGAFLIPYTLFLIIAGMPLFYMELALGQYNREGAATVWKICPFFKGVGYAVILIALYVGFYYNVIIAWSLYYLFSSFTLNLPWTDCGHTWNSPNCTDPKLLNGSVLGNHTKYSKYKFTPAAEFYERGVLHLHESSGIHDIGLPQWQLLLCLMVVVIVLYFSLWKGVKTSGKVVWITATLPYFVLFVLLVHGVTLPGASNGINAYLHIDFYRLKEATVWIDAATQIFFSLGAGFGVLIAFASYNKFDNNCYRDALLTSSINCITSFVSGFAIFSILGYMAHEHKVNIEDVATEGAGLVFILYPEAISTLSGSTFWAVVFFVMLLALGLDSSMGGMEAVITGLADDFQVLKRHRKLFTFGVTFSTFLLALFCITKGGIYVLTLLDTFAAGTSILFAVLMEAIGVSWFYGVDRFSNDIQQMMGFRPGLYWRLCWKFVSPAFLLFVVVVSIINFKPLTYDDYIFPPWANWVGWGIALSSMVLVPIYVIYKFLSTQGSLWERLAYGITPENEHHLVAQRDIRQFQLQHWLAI
method: Competition binding of [3H]nisoxetine in COS-7 cells expressing hNET
measurement-conditions: hNET in COS-7 cells; competitive inhibition of [3H]nisoxetine binding; mean [SEM interval]; read-out: NET Ki
readout-label: Ki (nM)
Report as a plain number; the unit nM is understood.

>  <compound>
COC(=O)[C@H]1[C@@H](c2ccc(F)cc2)C[C@@H]2CC[C@H]1N2C

>  <endpoint-unit>
nM

>  <readout-number>
357

$$$$

Please find the next compound below.
In plain terms, COC(=O)[C@H]1C(c2ccc(I)cc2)C[C@@H]2CC[C@H]1N2C (some centres unmarked) has a documented Ki of 4

* * *

target-system: hDAT expressed in COS-7 cells (Homo sapiens)
Sequence (Q01959 whole entry): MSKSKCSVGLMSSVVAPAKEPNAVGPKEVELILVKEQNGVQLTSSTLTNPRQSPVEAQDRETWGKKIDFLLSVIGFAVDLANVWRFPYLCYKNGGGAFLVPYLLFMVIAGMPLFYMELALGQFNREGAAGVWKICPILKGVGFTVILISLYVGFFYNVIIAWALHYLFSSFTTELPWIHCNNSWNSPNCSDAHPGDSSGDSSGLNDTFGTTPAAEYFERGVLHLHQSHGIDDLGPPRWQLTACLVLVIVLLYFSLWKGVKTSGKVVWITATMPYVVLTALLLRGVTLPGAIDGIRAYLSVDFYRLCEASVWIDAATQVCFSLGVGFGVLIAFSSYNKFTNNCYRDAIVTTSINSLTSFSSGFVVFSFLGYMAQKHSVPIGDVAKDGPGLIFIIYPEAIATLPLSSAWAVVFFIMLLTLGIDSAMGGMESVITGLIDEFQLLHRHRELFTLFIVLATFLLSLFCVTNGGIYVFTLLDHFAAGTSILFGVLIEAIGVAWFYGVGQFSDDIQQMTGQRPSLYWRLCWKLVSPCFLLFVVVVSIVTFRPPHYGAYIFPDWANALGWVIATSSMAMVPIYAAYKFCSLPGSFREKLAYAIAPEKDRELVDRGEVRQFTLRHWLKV
method: Competition binding of [3H]CFT in COS-7 cells expressing hDAT
measurement-conditions: hDAT in COS-7 cells; competitive inhibition of [3H]CFT binding; mean [SEM interval]; read-out: DAT Ki
readout-label: pKi
Formally, pKi is defined as -log10 of the concentration c, with c in mol/L.

Notebook: COC(=O)[C@H]1C(c2ccc(I)cc2)C[C@@H]2CC[C@H]1N2C (stereo partly shown) , pKi read as 9.30
